# Test system: U-251
# assayComment: NCI tumour cell line growth inhibition, 48 h
Active and inactive are the calls of the source. Cut-off read from the data, not from the text of the source: active = GI50 up to about 1.1 µM and inactive = higher.
GI50 for assorted molecules

# molecule, targetDesc, GI50
measured = [
    ("O=C(c1ccc(Cl)cc1)N(C(=S)N1CCN(c2ccccn2)CC1)c1ccccc1", "U-251", "> 100 µM (inactive)"),
    ("C=CC/N=C1\\NC(=O)C(CC(=O)Nc2ccc(C)cc2)S1 (stereo not given)", "U-251", "> 100 µM (inactive)"),
    ("O=C(O)C1=Cc2cccc3cccc(c23)C1=O", "U-251", "> 100 µM (inactive)"),
    ("COc1ccc(C2=NN(c3ccccc3)C[N+](c3ccc(C)cc3)=N2)cc1", "U-251", "20.6 µM (inactive)"),
    ("CCOC(=O)c1sc2c(c1OC(=O)c1ccccc1)c(=O)n(-c1ccccc1)c(=S)n2-c1ccccc1", "U-251", "20.3 µM (inactive)"),
]

---

# System: EKVX
# assayComment: NCI tumour cell line growth inhibition, 48 h
Activity calls are given as the source filed them. Rule as the data show it: active = GI50 up to about 1.1 µM and inactive = higher.
GI50 values by entry

# structure, GI50
data = [
    ("CCOC(=O)/C(=C/c1cccc(C#N)c1)N(CC)CC", "> 100 µM (inactive)"),
    ("Cc1cccc(C(C)C)c1NC(=O)/C(Cc1c([N+](=O)[O-])cccc1[N+](=O)[O-])=N/NC(=O)CC#N", "7.05 µM (inactive)"),
    ("CCOCCOCCOCc1nc(C#N)c(N)o1", "> 100 µM (inactive)"),
    ("Cc1cccc2c1C(=O)[C@](C)([C@]1(C)Nc3cccc(C)c3C1=O)N2", "23.7 µM (inactive)"),
    ("Nc1ccc2ccc(-c3ccc[nH]3)nc2n1", "> 100 µM (inactive)"),
    ("O=c1[nH][nH]c(=O)[nH]1", "> 100 µM (inactive)"),
    ("CCOC(=O)C(O)(C(=O)OCC)c1cc(C(C)(C)C)c(O)c(C(C)(C)C)c1", "48.4 µM (inactive)"),
    ("Cc1ccc(OCCn2cc(Nc3ccccc3)c(=O)n(CCOc3ccc(C)cc3)c2=O)cc1", "> 100 µM (inactive)"),
    ("O=C1C=CC2(C=C1)CCC(=O)O2", "17.9 µM (inactive)"),
    ("COc1ccc(Cl)cc1NC(=O)O/N=C(\\Cl)C(C)C", "3.74 µM (inactive)"),
    ("N#C/C(=C1/Sc2c(nc[nH]c2=O)N1c1ccccc1)c1nc2ccccc2[nH]1", "> 100 µM (inactive)"),
]

---

# Tested on: UACC-62
# assayComment: NCI tumour cell line growth inhibition, 48 h
Activity calls are given as the source filed them. No stated cut-off is given here; in the data, active = GI50 up to about 1.1 µM and inactive = higher.
Possible outcomes: active, inactive

# compound, classification
records = [
    ("CO[C@H]1[C@@H](O)[C@@H](C)O[C@@H](O[C@H]2CC[C@@]3(C)[C@H](CC[C@@H]4[C@@H]3CC[C@]3(C)[C@@H](C5=CC(=O)OC5)CC[C@]43O)C2)[C@@H]1O [ODOROSIDE H]", "active"),
    ("O=C1C=CC2(C=C1)CCC(=O)O2", "inactive"),
    ("COC(=O)C1Cc2c(C)cccc2C1=O (centres undefined)", "inactive"),
    ("COc1cc(CNc2nc3cc(C(F)(F)F)ccc3nc2C)cc(OC)c1OC", "inactive"),
]
